# Test system: Escherichia coli TOP10
# method: shrunken log2 fold change of peptide-encoding DNA abundance (4.5 h post-induction vs induction); higher = less antimicrobial activity (less host growth inhibition)
# measurement setup: time post-induction: 4.5 h; library: site-saturation at positions 5, 18, 19, 20
Assign class by shrunken log2 fold change: not lower than -0.002 means 1.0; lower than -0.002 means 0.0.

Input: Can RRIRDRPPRLPRPRPRPAICPRP be said to have shrunken log2 fold change at or above -0.002?
Output: 1.0

Input: Identify whether the reported shrunken log2 fold change of the following sequence is -0.002 or greater: RRIRNRPPRLPRPRPRPMKYPRP
Output: 0.0

Input: Can RRIRQRPPRLPRPRPRPSICPRP be said to have shrunken log2 fold change at or above -0.002?
Output: 0.0

New cases:
Input: Does the sequence RRIRNRPPRLPRPRPRPAMAPRP have recorded shrunken log2 fold change that is -0.002 or more?
Output: 1.0

Input: Does RRIRNRPPRLPRPRPRPWECPRP have a reported shrunken log2 fold change of at least -0.002?
Output: 1.0

Input: hey, is shrunken log2 fold change for this one >= -0.002? RRIRDRPPRLPRPRPRPDEIPRP
Output: 1.0

Input: For this sequence, is measured shrunken log2 fold change -0.002 or higher? RRIRARPPRLPRPRPRPEQPPRP
Output: 1.0

Input: For this sequence, is measured shrunken log2 fold change -0.002 or higher? RRIRYRPPRLPRPRPRPSFSPRP
Output: 0.0

Input: Determine whether this sequence has shrunken log2 fold change no lower than -0.002: RRIRTRPPRLPRPRPRPNVCPRP
Output: 1.0

Input: Textbook exercise: given the entry RRIRWRPPRLPRPRPRPFWAPRP , state whether its shrunken log2 fold change is greater than or equal to -0.002.
Output: 1.0

Input: Does shrunken log2 fold change meet or surpass -0.002 for RRIRWRPPRLPRPRPRPEDKPRP ?
Output: 0.0

Input: Reported shrunken log2 fold change at or above -0.002? RRIRIRPPRLPRPRPRPQTPPRP
Output: 0.0

Input: Determine whether measured shrunken log2 fold change meets or exceeds -0.002 for RRIRRRPPRLPRPRPRPPEEPRP
Output: 1.0

Input: Dear colleague, could you confirm whether RRIRDRPPRLPRPRPRPMSFPRP has shrunken log2 fold change at or above -0.002?
Output: 0.0

Input: Answer whether shrunken log2 fold change of RRIRDRPPRLPRPRPRPNRCPRP is greater than or equal to -0.002.
Output: 1.0

Input: Quick check: does RRIRDRPPRLPRPRPRPFHVPRP have shrunken log2 fold change greater than or equal to -0.002?
Output: 0.0

====

# System: Escherichia coli TOP10;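 further: peptides expressed intracellularly from a pBAD plasmid library in pooled LB shake-flask culture, induced with 0.3% L-arabinose, DNA abundance read by NGS, three biological replicates, DESeq2 with apeglm shrinkage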
# method: shrunken log2 fold change of peptide-encoding DNA abundance (4.5 h post-induction vs induction); higher = less antimicrobial activity (less host growth inhibition)
# measurement setup: time post-induction: 4.5 h; library: site-saturation at positions 5, 18, 19, 20
reported endpoint: shrunken log2 fold change
# output: bare number, no unit

Field: example entries. Status: answers known.
Input: If you can, please state the reported shrunken log2 fold change value of RRIRDRPPRLPRPRPRPSPNPRP .
Output: 0.122

Input: Dear colleague, I am looking for the recorded shrunken log2 fold change of the following sequence: RRIRCRPPRLPRPRPRPTIYPRP
Output: -0.644

Input: Can you look up the measured shrunken log2 fold change of RRIRLRPPRLPRPRPRPEILPRP for me?
Output: 0.0325

Input: Look up shrunken log2 fold change: RRIRQRPPRLPRPRPRPHVEPRP
Output: -0.00703

Input: Which value of shrunken log2 fold change has been reported for RRIRARPPRLPRPRPRPGPDPRP in the records?
Output: 0.455

***
Input: Which measured shrunken log2 fold change value corresponds to RRIRLRPPRLPRPRPRPSGIPRP ?
Output: -0.267

Input: Look up shrunken log2 fold change for this sequence: RRIRTRPPRLPRPRPRPLQRPRP
Output: -0.063

Input: GET /values?readout=shrunken log2 fold change&item= RRIRRRPPRLPRPRPRPTRLPRP
Output: 0.612

Cited source: the supplement of paper PMC9112550
